target-desc: T1, biotinylated TTR F87M L110M monomer (Avi_mTTR in vivo biotinylation construct) (human, biotin on the Avi tag (in vivo biotinylation by BirA))
T1 construct: also called Biotinyl-Monomer; biotinyl-mTTR
experiment-notes: biolayer interferometry (Octet RED), antibody on anti-mouse biosensor, biotinylated TTR monomer
endpoint: Kd (nM)
// units = nM; emit number, no label

Use these answered entries as a reference point.
Lookup: Any idea what Kd was measured for murine anti-human monomer TTR antibody Ab5 (antibody, V domains shown, Murine monoclonal antibody; entries are called Mouse Ab5 HC / LC but hold only the variable domains; also called mAb 5; Antibody 5) VH: EVQLQQSGAELVKPGASVKLSCTASGFNIKDYYMHWVKQRTEQGLEWIGRIDPEDGETKYAPKFQGKATITADTSSNTAYLQLSSLTSEDTAVYYCALLWLRRGRGYWGQGTTLTVSS VL: DIQMTQSPSSLSASLGERVSLTCRASQEISGYLSWLQQKPDGTIKRLIYAASTLDSGVPKRFSGSRSGSDYSLTISSLESEDFADYYCLQYASYPPTFGAGTKLELK ?
Found: 1.31

Lookup: Would you mind doing murine anti-human monomer TTR antibody Ab6 (antibody, V domains shown, Murine monoclonal antibody; entries are called Mouse Ab6 HC / LC but hold only the variable domains; also called Antibody 6) VH: QVQLQQSGAELMKPGASVKLSCKATGYTFTGYWIEWVKQRPGHGLEWIGEILPGSGSTNYNEKFKGKATFTADTSSNTAYMQLSSLTTEDSAIYYCARLRGSSYPWYFDYWGQGTTLTVSS VL: DIQMTQSPASLSVSVGETVTITCRASENIYSNLAWYQQKQGKSPQLLVYAATNLADGVPSRFSGSGSGTQYSLKINSLQSEDFGSYYCQHFWGTPYTFGGGTKLEIK as well?
Found: 11.4

Lookup: Would you mind doing murine anti-human monomer TTR antibody Ab2 (antibody, V domains shown, Murine monoclonal antibody; also called mAb 2; Antibody 2) VH: EVKLEQSGGGLVQPGGSMKLSCVASGFTFSNYWMNWVRQSPEKGLEWVAQIRLKSDNYATHYAESVKGRFTISRDDSKSSVYLQMNNLRAEDTGIYYCTGVFTYWGQGTLVTVSA VL: NIVLTQSPASLAVSLGQRATISCRTSESVDSYGNSFMHWYQQKPGQPPKLLIYLASNLESGVPARFSGSGSRTDFTLTIDPVEADDAATYYCQQNNEDPMYTFGGGTKLEIK as well?
Found: 6.21

Moving on to another binder below.
Lookup: Any idea what Kd was measured for murine anti-human monomer TTR antibody Ab3 (antibody, V domains shown, Murine monoclonal antibody; entries are called Mouse Ab3 HC / LC but hold only the variable domains; also called mAb 3; Antibody 3) VH: EVQLQQSGPVLVKPGASVKMSCKASGYTFTDYYMNWVKQSHGKSLEWIGVINPYNGGTSYNQKFKGKATLTVDKSSSTAYMELNSLTSEDSAVYYCARDLTGTGGAMDYWGQGTSVTVSS VL: QIVLTQSPAILSASPGEKVTMTCRASSSVSYMHWYQQKPGSSPKPWIYATSNLASGVPARFSGSGSGTSYSLTISRVEAEDAATYYCQQWSSNPLTFGAGTKLELK ?
Found: 12.1
